The reported numbers originate from ChEMBL document CHEMBL5154649.

target or test system: Cytochrome P450 3A4 (Homo sapiens, UniProt P08684)
Sequence (P08684 whole entry): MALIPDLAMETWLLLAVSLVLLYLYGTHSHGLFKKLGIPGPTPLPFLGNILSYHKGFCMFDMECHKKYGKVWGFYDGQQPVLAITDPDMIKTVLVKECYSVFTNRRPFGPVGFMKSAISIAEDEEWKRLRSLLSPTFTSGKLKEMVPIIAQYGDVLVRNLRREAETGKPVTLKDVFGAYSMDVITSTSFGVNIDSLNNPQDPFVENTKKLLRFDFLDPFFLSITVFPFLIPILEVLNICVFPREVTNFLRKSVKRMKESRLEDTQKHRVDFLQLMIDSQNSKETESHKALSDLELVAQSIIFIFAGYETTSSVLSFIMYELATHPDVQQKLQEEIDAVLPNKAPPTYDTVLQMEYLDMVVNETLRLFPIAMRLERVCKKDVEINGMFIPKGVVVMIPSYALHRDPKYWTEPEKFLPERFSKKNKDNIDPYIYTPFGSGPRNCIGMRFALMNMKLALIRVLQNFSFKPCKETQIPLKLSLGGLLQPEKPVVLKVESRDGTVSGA
test details: Inhibition of CYP3A4 in human liver microsomes assessed as reduction in 1'-hydroxy midazolam formation using midazolam as substrate preincubated for 20 mins in absence of NADPH followed by incubation with substrate for 10 mins by LC-MS/MS analysis
Assay type: ADME, Microsome
pIC50: −log10 of the molar value.
reported property: pIC50

molecular string	value
COC[C@H](Cc1ccccc1)NC[C@@H](O)c1cc(C(F)(F)F)nc2c(C(F)(F)F)cccc12	5.55

---

pIC50: recorded values
System: Plasmodium falciparum
test details: Antiplasmodial activity against CQ-susceptible Plasmodium falciparum 3D7 assessed as inhibition of parasite growth measured after 48 hrs by SYBR Green 1 dye based fluorescence assay
Type: functional, organism-based
assay setup: 3D7, 48 h
pIC50: −log10 of the molar value.

compound	qual	pIC50
OC[C@@H](Cc1ccccc1)NC[C@H](O)c1cc(C(F)(F)F)nc2c(C(F)(F)F)cccc12	=	7.44
C[C@@H](CO)NC[C@H](O)c1cc(C(F)(F)F)nc2c(C(F)(F)F)cccc12 (single isomer, unassigned)	=	6.86
O[C@H](CNCCCC(F)(F)F)c1cc(C(F)(F)F)nc2c(C(F)(F)F)cccc12	=	7.94
O[C@@H](CN1CCN(Cc2cccc3ccccc23)CC1)c1cc(C(F)(F)F)nc2c(C(F)(F)F)cccc12	<	6.00
OC[C@H](Cc1ccccc1)NC[C@H](O)c1cc(C(F)(F)F)nc2c(C(F)(F)F)cccc12 (single isomer, unassigned)	=	7.51
OC[C@H](Cc1ccccc1)NC[C@@H](O)c1cc(C(F)(F)F)nc2c(C(F)(F)F)cccc12	=	7.52
COC[C@H](C)NC[C@H](O)c1cc(C(F)(F)F)nc2c(C(F)(F)F)cccc12	=	7.84
C[C@@H](CO)NC[C@@H](O)c1cc(C(F)(F)F)nc2c(C(F)(F)F)cccc12	=	6.78
